B1: RHOBTB3 (parent)
chain: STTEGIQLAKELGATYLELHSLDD

- Variants of: B1
- ASSAY NAME: protein stability index of a GFP-peptide fusion (GPS, HEK-293T) (PSI 1-6); higher = more stable;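 also: lentivirally expressed fusions sorted by FACS into six bins by GFP to DsRed ratio, PSI derived from sequencing read proportions per bin multiplied by bin number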
- APPLIED CONDITIONS: c terminus: a fixed tail appended
// classify(record): look up protein stability index in ranges A: < 3; B: ≥ 3 and < 4; C: ≥ 4

INPUT: Band for "K10V" ?
OUTPUT: A

INPUT: Band for "Q7V" ?
OUTPUT: B

INPUT: Band for "T3K" ?
OUTPUT: B

INPUT: Band for "S1P" ?
OUTPUT: B

INPUT: Band for "L17I" ?
OUTPUT: A

INPUT: Band for "D23A" ?
OUTPUT: A

INPUT: Band for "D24E" ?
OUTPUT: B

INPUT: Band for "I6R" ?
OUTPUT: B

INPUT: Band for "E18Q" ?
OUTPUT: B

INPUT: Band for "A9Y" ?
OUTPUT: B

INPUT: Band for "L12N" ?
OUTPUT: C

INPUT: Band for "E11G" ?
OUTPUT: B

INPUT: Band for "Y16F" ?
OUTPUT: B

INPUT: Band for "S1M" ?
OUTPUT: B

INPUT: Band for "G5A" ?
OUTPUT: B

INPUT: Band for "E18W" ?
OUTPUT: A

INPUT: Band for "D24S" ?
OUTPUT: A

INPUT: Band for "G13P" ?
OUTPUT: C

INPUT: Band for "S21R" ?
OUTPUT: A

INPUT: Band for "Q7C" ?
OUTPUT: B

INPUT: Band for "L19Q" ?
OUTPUT: C

INPUT: Band for "T3W" ?
OUTPUT: A

INPUT: Band for "A14V" ?
OUTPUT: B

INPUT: Band for "L22T" ?
OUTPUT: C

INPUT: Band for "S1T" ?
OUTPUT: B

INPUT: Band for "S1L" ?
OUTPUT: A

INPUT: Band for "L12Y" ?
OUTPUT: C

INPUT: Band for "T2H" ?
OUTPUT: B

INPUT: Band for "G13C" ?
OUTPUT: A

INPUT: Band for "G5N" ?
OUTPUT: C

INPUT: Band for "A14R" ?
OUTPUT: B

INPUT: Band for "S1D" ?
OUTPUT: C

INPUT: Band for "G13T" ?
OUTPUT: A

INPUT: Band for "L17P" ?
OUTPUT: C

INPUT: Band for "L12G" ?
OUTPUT: C

INPUT: Band for "S1G" ?
OUTPUT: B

INPUT: Band for "L22Q" ?
OUTPUT: C

INPUT: Band for "S21F" ?
OUTPUT: A

INPUT: Band for "A14W" ?
OUTPUT: A

INPUT: Band for "D23Y" ?
OUTPUT: A
